The origin of these recorded values is patent US20040072992A1.

Tested on: B. sereus IFO3457
Conditions: 18 h
Where a SMILES comes first, the peptide text is derived from it.

compound | MIC
CC(C)C[C@H](NC(=O)[C@@H](NC(=O)[C@@H](N)CCCNC(=N)N)C(C)C)C(=O)O [RVL] (H-Arg-Val-Leu-OH) | >800 µM
CC(C)[C@H](NC(=O)[C@@H](N)CCCNC(=N)N)C(=O)NCC(=O)O [RVG] (H-Arg-Val-Gly-OH) | >800 µM
CC(C)C[C@H](NC(=O)[C@H](C)N)C(=O)N[C@@H](CCCNC(=N)N)C(=O)O [ALR] (H-Ala-Leu-Arg-OH) | >200 µM
CC(C)[C@H](NC(=O)[C@@H](N)CCCCN)C(=O)NCC(=O)O [KVG] (H-Lys-Val-Gly-OH) | >800 µM
CC(C)C[C@H](NC(=O)[C@@H](NC(=O)[C@@H](N)CCCCN)C(C)C)C(=O)O [KVL] (H-Lys-Val-Leu-OH) | 800 µM

----------
Experiment: Anti-cancer activity, MCF7
Type: cell-based, human
Details: MCF7, breast cancer
Where no end group is shown, it is not given here.
Below, each of the sequences is paired with its reported LC50 value.

ordered_residues | LC50, µM
KNWKGIAGMAKKLLGKNWKLM [mast21, reference compound] | 100
RNWRGIAGMARRLLGRNWRLM [mast21R] | 90

----------
Test system: E. coli CR-3
Settings: CR-3, 18 h
Where no end group is shown, it is not given here.
readout_name: log10 of MIC (log10 of the value in µM)

substance | readout_name | reading
KNWKGIAGMAKKLLGKNWKLM [mast21, reference compound] | log10 of MIC | 0.80
RNWRGIAGMARRLLGRNWRLM [mast21R] | log10 of MIC | 0.20
KNRKGIAGMAKKLLGNKWKLM [mastWR] | log10 of MIC | 1.40
KVLKVLKVLKVLKVL [KVL5, KVLKVLKVLKVLKVL] | log10 of MIC | 1.40
RVGINWKGIAAMAKKII [RVG-mastX, RVG INWKGIAAMAKKII] | log10 of MIC | 1.70
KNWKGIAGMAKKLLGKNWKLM-NH2 [mast21N] | log10 of MIC | 0.49
INWKGIAAMAKKLL [mastoparanX, INWKGIAAMAKKLL, reference compound] | log10 of MIC | 0.49
KVLINWKGIAAMAKKII [KVL-mastX, KVL INWKGIAAMAKKII] | log10 of MIC | 1.70

----------
Assay: Anti-cancer activity, A549
Format: cell-based, human
Conditions: human; A549, lung cancer; read-out: LC50
Where no end group is shown, it is not given here.
Below, each of the sequences is paired with its reported CC50 at 2 days value.
readout_name: CC50 at 2 days (µM)

ordered_residues | comparative_sign | reading
KVLKVLKVLKVLKVLKVL [KVL6, KVLKVLKVLKVLKVLKVL] | = | 70
ALRALRALRALRALRALR [ALR6, ALRALRALRALRALRALR] | > | 100

----------
Experiment: Anti-cancer activity, HCT116 cell
Type: cell-based, human
Conditions: human, sulforhodamine B, read-out: LC50
Procedure: Anti-cancer activity was evaluated using a method complying with an anti-cancer agent screening method (1990) using a human cancer cell panel which has been carried out by U.S. National Cancer Institute (NCI). Cells employed in experiments were from the following three cell lines: HL60 cell (cell line derived from human leukemia); HeLa cell (cell line derived from human uterine cancer); and HCT116 cell (cell line derived from human large intestine cancer). […]
Where no end group is shown, it is not given here.

ordered_residues | CC50 at 2 days
KVLKVLKVLKVLKVL [KVL5, KVLKVLKVLKVLKVL] | > 100 µM
